# target_or_test_system: PMAT (equilibrative nucleoside transporter 4) (Homo sapiens)
# Sequence (Q7RTT9 whole entry): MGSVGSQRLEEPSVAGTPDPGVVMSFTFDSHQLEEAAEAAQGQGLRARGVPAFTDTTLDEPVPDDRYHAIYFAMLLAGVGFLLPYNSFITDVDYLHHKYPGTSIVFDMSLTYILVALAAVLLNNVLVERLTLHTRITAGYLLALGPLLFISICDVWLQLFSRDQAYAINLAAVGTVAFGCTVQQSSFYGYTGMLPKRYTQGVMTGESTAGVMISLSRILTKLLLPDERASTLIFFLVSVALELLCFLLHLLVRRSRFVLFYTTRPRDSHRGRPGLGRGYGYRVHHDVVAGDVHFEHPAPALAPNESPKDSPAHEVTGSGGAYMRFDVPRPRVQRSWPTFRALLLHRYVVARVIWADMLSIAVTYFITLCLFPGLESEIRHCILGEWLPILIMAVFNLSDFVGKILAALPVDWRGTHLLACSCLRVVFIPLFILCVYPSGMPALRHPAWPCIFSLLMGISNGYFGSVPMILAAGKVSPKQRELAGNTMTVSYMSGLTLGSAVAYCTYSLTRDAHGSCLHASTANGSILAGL
# procedure_details: in vitro
# measurement_setup: not told, pH 6
value_kind: Km

Specify measured Km for NCCc1c[nH]cn1 [HISTAMINE] .
10 mM
